- System: HOP-62
- Test: NCI tumour cell line growth inhibition, 48 h
Activity calls are given as the source filed them. No stated cut-off is given here; in the data, active = GI50 up to about 1.1 µM and inactive = higher.
Value Type: GI50

Example entries and their recorded answers appear below.
{"columns": ["Molecule", "Subject Of Test", "GI50"],
 "data": [
  ["C=C1c2[nH]c3ccccc3c2C2C(CC)C1CCN2C (stereo not given)", "HOP-62", "> 100 µM (inactive)"],
  ["COC(=O)c1c(C(=O)OC)c2c3ccccc3n(C)c2c2c1c1ccccc1n2C", "HOP-62", "19.3 µM (inactive)"],
  ["COc1ccccc1C(=O)c1ccc2ccccc2c1", "HOP-62", "33.7 µM (inactive)"],
  ["COc1cccc2c1C(=O)c1ccc3cc(CCl)cc(O)c3c1C2=O", "HOP-62", "0.483 µM (active)"]
]}

Pending molecule:
Value (GI50, HOP-62) for record C=C1CC[C@@H](CCC2CCC3(OC2)O[C@]2(O)CC[C@@]3(C)OC2(C)C)C(C)(C)[C@H]1C/C=C1\CCOC1=O (stereo not given in full) = 32.1 µM (inactive)

Data credit: ChEMBL document CHEMBL1201862
